The entries below are paired with their reported EC50.
System: pLai RLuc reporter virus
Experiment: HIV MT-4 serum shift antiviral reporter assay
Type: cell-based
Settings: Human immunodeficiency virus 1, 72 h, read-out: RLUC 50% HS (nM), HS/CCM: 50% human serum, 72 h, Renilla Glo
Please provide the amount together with its unit, number first.

These solved cases illustrate the format of a correct answer.
COMPOUND STRUCTURE STRING: C[C@@H]1CC[C@@H](C)N2CN1C(=O)c1c(O)c(=O)c(C(=O)NCc3c(F)cc(F)cc3F)cn12
RESULT: 63.8 nM
--
COMPOUND STRUCTURE STRING: C[C@@H]1C=C[C@H](C)N2CN1n1cc(C(=O)NCc3ccc(F)cc3F)c(=O)c(O)c1C2=O
RESULT: 169 nM
--
COMPOUND STRUCTURE STRING: C[C@@H]1CC[C@H](CF)N2CN1n1cc(C(=O)NCc3ccc(F)cc3F)c(=O)c(O)c1C2=O
RESULT: 462 nM
--
COMPOUND STRUCTURE STRING: CC(C)[C@@H]1C=C[C@H](C)N2CN1n1cc(C(=O)NCc3c(F)cc(F)cc3F)c(=O)c(O)c1C2=O
RESULT: 325 nM
--
COMPOUND STRUCTURE STRING: COC[C@@H]1CC[C@H](C)N2CN1n1cc(C(=O)NCc3ccc(F)cc3F)c(=O)c(O)c1C2=O
RESULT: 261 nM

Q. Which measured EC50 value corresponds to C[C@H]1CC[C@H](C)N2CN1C(=O)c1c(O)c(=O)c(C(=O)NCc3ccc(F)cc3F)cn12 ?
A. 328 nM

Q. Which measured EC50 value corresponds to C[C@@H]1c2nc[nH]c2[C@H](C)N2CN1n1cc(C(=O)NCc3ccc(F)cc3F)c(=O)c(O)c1C2=O ?
A. 104 nM
